- tgt: histone deacetylase activity (HeLa nuclear extract)
- assay.protocol: Histone deacetylase activity (Fluor de Lys, HeLa nuclear extract)
- Type: biochemical
- condition.details: Table 4; compound as such, Ester for Examples 7 and 9; read-out: Inhibition of HDAC (IC50 nM)
Would you kindly list IC50 for each of these compounds?
One number for each entry, in nM.

Some entries whose results are on file:
[
  {
    "compound": "O=C(CCc1ccc(CNC2(C(=O)OC3CCCC3)CCCC2)cc1)NO [Example 7]",
    "tgt": "histone deacetylase activity (HeLa nuclear extract)",
    "units.of.measure": "nM",
    "IC50": 4200
  },
  {
    "compound": "O=C(CCc1ccccc1)NO [Compound IV, N-Hydroxy-3-phenyl-propionamide, reference compound]",
    "tgt": "histone deacetylase activity (HeLa nuclear extract)",
    "units.of.measure": "nM",
    "IC50": 2600
  }
]

For the compound shown here, CC(C)CC(C)(NCc1ccc(CCC(=O)NO)cc1)C(=O)OC1CCCC1 (racemic) [Example 9] , give the reported IC50.
4900
